I'd be grateful if you could share measured IC50 for these entries.
molecular target: hMC-4R (Homo sapiens); construct: expressed in transfected cells; host or cells: HEK293 cell membrane preparations; experiment: hMC-4R membrane binding assay (fluorescence polarization, competition with fluorescence labeled NDP-alpha-MSH); conditions: HEK293 cell membrane preparations expressing human melanocortin receptors; values grouped in classes
Sequence (P32245 whole entry): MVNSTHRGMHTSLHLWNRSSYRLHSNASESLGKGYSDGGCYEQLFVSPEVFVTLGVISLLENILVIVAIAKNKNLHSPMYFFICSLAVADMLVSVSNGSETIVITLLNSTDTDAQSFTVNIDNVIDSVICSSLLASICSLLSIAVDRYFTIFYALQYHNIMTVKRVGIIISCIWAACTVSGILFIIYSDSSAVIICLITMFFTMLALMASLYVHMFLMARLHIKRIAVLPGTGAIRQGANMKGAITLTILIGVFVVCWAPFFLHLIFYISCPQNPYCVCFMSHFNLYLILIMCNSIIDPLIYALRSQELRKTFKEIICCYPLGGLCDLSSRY

So for CCC(COc1cccnc1C1CCN(C(=O)C(Cc2ccc(Cl)cc2Cl)NC(=O)OC(C)C)CC1)N(C)C (stereo not drawn) [Example 2] , the logged IC50 turned out to be ≤ 0.1 µM

The measured IC50 associated with CC[C@H](COc1cccnc1C1CCN(C(=O)[C@@H](Cc2ccc(Cl)cc2Cl)NC(=O)OC2CCCC2)CC1)N(C)C [Example 3] reads 0.1 to 1 µM

IC50 reported for this compound CCOC(=O)N[C@H](Cc1ccc(Cl)cc1Cl)C(=O)N1CCC(c2ncccc2OC[C@@H](CC)N(C)C)CC1 [Example 1] : ≤ 0.1 µM
